# Method summary: gradient 5% acetonitrile 3 min, to 50% in 2 min, to 85% in 15 min, held 3 min, 100 µL/min
# Condition summary: column: Zorbax Extend-C18 2.1 x 50 mm; eluents: water / acetonitrile, 0.1% formic acid
Experimental readout: RP-LC retention time (s)
Report the figure in s without appending any unit label.

Worked set:
RP-LC retention time recorded for this molecule, CCCN1CCN(Cc2nc(-c3ccc(N4CCSCC4)nc3)no2)CC1 , is 615

RP-LC retention time recorded for this molecule, Cc1cc(=O)n(CC(=O)N2CCc3ccccc32)c(N)n1 , is 608

RP-LC retention time recorded for this molecule, O=C(NCc1cccc(F)c1)c1ccc(-c2cccs2)nc1 , is 894

RP-LC retention time recorded for this molecule, O=C(Nc1ccc2c(c1)OCCO2)C1CCCN(S(=O)(=O)Cc2ccc(F)cc2)C1 (configuration not stated) , is 905

RP-LC retention time recorded for this molecule, COc1cccc(CNC(=O)C2CCN(c3cc(N4CCOCC4)ncn3)CC2)c1 , is 616

RP-LC retention time recorded for this molecule, CCn1cc(-c2ccc(C)cc2)cc1C(=O)NCCOC , is 919

---
RP-LC retention time recorded for this molecule, CCN1CCN(C(=O)C2CCN(C3=NS(=O)(=O)C(c4ccc(C)c(C)c4)=C3C)CC2)CC1 , is 598

----------
# Method summary: gradient 5% acetonitrile 3 min, to 50% in 2 min, to 85% in 15 min, held 3 min, 100 µL/min
# Condition summary: column: Zorbax Extend-C18 2.1 x 50 mm; eluents: water / acetonitrile, 0.1% formic acid
Entries and their RP-LC retention time values follow.
// return the numeric value with its unit appended

RP-LC retention time recorded for this molecule, COc1ccc2cccc(NC(=O)c3ccsc3)c2n1 , is 1020 s

RP-LC retention time recorded for this molecule, CCCNC(=O)Cn1cc(C(=O)Nc2cc(C)cc(C)c2)c(=O)c2ccc(C)nc21 , is 982 s

RP-LC retention time recorded for this molecule, CC(C)C(=O)Nc1ccc(CCc2nc3ccc(C(=O)NC4CC4)cc3[nH]2)cc1 , is 594 s

---
RP-LC retention time recorded for this molecule, CCc1ccc(-c2csc(NC(=O)c3cccnc3)n2)cc1 , is 924 s

RP-LC retention time recorded for this molecule, O=C(c1csc(-c2ccc(N3CCOCC3)nc2)n1)N1CCOCC1 , is 626 s

RP-LC retention time recorded for this molecule, O=C(NCCOc1cccc2cccnc12)c1cnn(-c2ccccc2)n1 , is 623 s

RP-LC retention time recorded for this molecule, CN1CCN(CCNC(=O)c2nc3ccccn3c2-c2ccc(Cl)cc2)CC1 , is 603 s

RP-LC retention time recorded for this molecule, Fc1ccccc1-c1nc(-c2ccc3nncn3c2)no1 , is 785 s

RP-LC retention time recorded for this molecule, O=C(Cn1cccc1-c1nnc(-c2ccccc2)o1)NCc1cccnc1 , is 617 s

RP-LC retention time recorded for this molecule, CSc1cccc(NC(=O)Cn2c(N3CCc4ccccc4C3)nc(C)cc2=O)c1 , is 840 s

RP-LC retention time recorded for this molecule, O=C(Cc1ccc(F)cc1)NC1CCN(c2nnc3ccccn23)CC1 , is 629 s

RP-LC retention time recorded for this molecule, O=S(=O)(c1cccnc1)N1CCN(c2ccc(-c3cccs3)nn2)CC1 , is 692 s

RP-LC retention time recorded for this molecule, CCc1ccc(N2C(=O)CN(S(C)(=O)=O)CC2(C)C(=O)NC2CCCCCCC2)cc1 (stereo not drawn) , is 1000 s

RP-LC retention time recorded for this molecule, CCOC(=O)N1CCC(NC(=O)c2cc3sc(Cl)cc3n2CC)CC1 , is 985 s

RP-LC retention time recorded for this molecule, COc1ccc(OCc2nc(-c3cccc(-c4ccn[nH]4)c3)no2)cc1 , is 914 s

RP-LC retention time recorded for this molecule, CCc1c(C(=O)O)nnn1-c1cccc(Br)c1 , is 757 s

RP-LC retention time recorded for this molecule, Cc1ccc(CNC(=O)c2cccc(-c3nc4cccnc4n3C(C)C)c2)o1 , is 793 s

RP-LC retention time recorded for this molecule, COc1ccc(-c2n[nH]c3c2C(c2cc(OC)ccc2OC)NC3=O)cc1 (stereo not drawn) , is 729 s

RP-LC retention time recorded for this molecule, Cc1ccc(-c2cn3c(CC(=O)Nc4ccc(Cl)cc4F)csc3n2)cc1C , is 966 s

RP-LC retention time recorded for this molecule, Cn1c(NC(=O)c2ccc(Cl)cc2)cc(=O)n(C)c1=O , is 660 s

RP-LC retention time recorded for this molecule, O=C1CC(c2nc(-c3cccnc3)no2)CN1c1ccc2c(c1)OCO2 (stereo not drawn) , is 728 s

RP-LC retention time recorded for this molecule, CCOC1CCN(C(=O)NC(C)C)CC1 , is 630 s

RP-LC retention time recorded for this molecule, Cc1c(C)n(-c2ccccc2)c2ncn(CC(=O)NC3CCCC3)c(=O)c12 , is 799 s
